Biological target: human Edg-1 (S1P1) (Homo sapiens)
Construct: expressed in transfected cells; host or cells: HEK-293
Sequence (P21453 whole entry): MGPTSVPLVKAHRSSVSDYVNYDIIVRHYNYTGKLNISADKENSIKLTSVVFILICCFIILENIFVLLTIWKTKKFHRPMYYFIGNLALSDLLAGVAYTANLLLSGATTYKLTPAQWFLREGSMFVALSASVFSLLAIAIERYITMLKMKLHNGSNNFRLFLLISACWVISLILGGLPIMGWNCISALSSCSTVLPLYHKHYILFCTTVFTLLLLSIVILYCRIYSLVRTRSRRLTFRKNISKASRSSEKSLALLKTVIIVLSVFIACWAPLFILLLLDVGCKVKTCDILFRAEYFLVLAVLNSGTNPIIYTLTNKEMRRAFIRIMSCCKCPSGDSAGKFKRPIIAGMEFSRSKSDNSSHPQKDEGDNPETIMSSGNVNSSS
Experiment: S1P1 binding inhibition test (membrane, [33P]-S1P)
Details: compound 10 μM; [33P]-S1P 0.1 nM; human Edg-1 (S1P1) HEK-293 membrane fraction; read-out: Binding test (membrane) % inhibition (10 μM)
READOUT_KIND: inhibition at 10 µM (%)

// Input: CCn1c(C(C)NS(=O)(=O)c2cccc3nsnc23)cnc1Oc1ccc(C)cc1 (stereo not drawn) [Compound 146] . Output its inhibition at 10 µM only.
57.8

Return inhibition at 10 µM for the following compound: CCn1c(C(C)NS(=O)(=O)c2cccc(C(F)(F)F)c2)cnc1Oc1ccc(C)cc1 (stereo not drawn) [Compound 37]
98.5

Quickly give me recorded inhibition at 10 µM for CCn1c(C(C)NS(=O)(=O)c2c(C)cc(Cl)cc2Cl)cnc1Oc1ccc(C)cc1 (stereo not drawn) [Compound 108]
81.3

Give the value of inhibition at 10 µM reported for the following: CCn1c(C(C)NS(=O)(=O)c2ccc(Cl)c(Cl)c2)cnc1Oc1ccc(C)nc1 (stereo not drawn) [Compound 195]
96.1

(1) CCn1c(C(C)NS(=O)(=O)c2ccc(Cl)c(Cl)c2)cnc1OCCCN1CCN(C)CC1 (stereo not drawn) [Compound 251]
(2) CCn1c(C(C)NS(=O)(=O)c2cc(F)ccc2C)cnc1Oc1ccc(C)cc1 (stereo not drawn) [Compound 70]
Compare inhibition at 10 µM: is it lower for 1 or for 2 ? Answer by quoting the chosen item's label.
2
